experiment: Selectivity index, ratio of IC50 for rat L6 cells to IC50 for chloroquine-resistant Plasmodium falciparum K1; format: toxicity, cell-based; settings: read-out: Ratio IC50
Entry class follows selectivity ratio: low value (below 10), medium value (10 to below 90), high value (90 or more)

Using the reported selectivity ratio, which band applies to Cn1c2nc3ccccc3c-2c(NCCCNC(=O)Nc2ccccc2)c2ccccc21 ?
high value

Lab log: Cn1c2nc3ccccc3c-2c(NCCCN)c2ccccc21 — assign selectivity ratio category
low value

Could you place Cn1c2nc3ccccc3c-2c(NCCCN2C(=O)CCSC2c2ccc(F)cc2)c2ccccc21 (configuration not stated) in its proper category? Many thanks.
medium value

Dear colleague, I would appreciate it if you could identify the bin for Cn1c2nc3ccccc3c-2c(NCCCNC(=S)Nc2ccccc2)c2ccccc21 and reply at your convenience.
medium value

Given Cn1c2nc3ccccc3c-2c(NCCCN2C(=O)c3ccccc3SC2c2ccc(Cl)cc2)c2ccccc21 (configuration not stated) , name the class its selectivity ratio places it in.
medium value

Band assignment needed for Cn1c2nc3ccccc3c-2c(NCCCN2C(=O)CSC2c2ccc(Cl)cc2)c2ccccc21 (configuration not stated) please.
medium value

Sort CN(C)c1ccc(C2SCC(=O)N2CCCNc2c3c4ccccc4nc-3n(C)c3ccccc23)cc1 (configuration not stated) into one of the categories.
medium value

Assign a category based on measured selectivity ratio for Cn1c2nc3ccccc3c-2c(NCCCNC(=O)Nc2ccccc2)c2cc(Br)ccc21 and give only the class name.
high value

Assign a bin to COc1ccc2c(c1)c(NCCCNC(=O)Nc1ccccc1)c1c3ccccc3nc-1n2C
high value

Please let me know in which category the item Cn1c2nc3ccccc3c-2cc2ccccc21 [NEOCRYPTOLEPINE] belongs.
low value

Just checking, what class would you give Cn1c2nc3ccccc3c-2c(NCCCNS(=O)(=O)c2ccccc2)c2ccccc21 here?
low value

Any idea which band Cn1c2nc3ccccc3c-2c(NCCCNC(=O)Nc2ccccc2)c2cc(C(F)(F)F)ccc21 is in?
medium value

Dear colleague, I would appreciate it if you could identify the bin for Cn1c2nc3ccccc3c-2c(NCCCN2C(=O)CCSC2c2ccc(Cl)cc2)c2ccccc21 (configuration not stated) and reply at your convenience.
medium value

Into which bin does this compound go? Cn1c2nc3ccccc3c-2c(Cl)c2ccccc21 [11-CHLORONEOCRYPTOLEPINE]
low value

Which category does the recorded selectivity ratio put Cn1c2nc3ccccc3c-2c(NCCCNC(=O)Nc2ccccc2)c2cc(Cl)ccc21 in?
high value

State the band of Cn1c2nc3ccccc3c-2c(NCCCNC(=O)Nc2ccccc2)c2cc(F)ccc21
medium value
